Biological target: PI3K-γ (Homo sapiens)
Sequence (P48736 whole entry, species assumed): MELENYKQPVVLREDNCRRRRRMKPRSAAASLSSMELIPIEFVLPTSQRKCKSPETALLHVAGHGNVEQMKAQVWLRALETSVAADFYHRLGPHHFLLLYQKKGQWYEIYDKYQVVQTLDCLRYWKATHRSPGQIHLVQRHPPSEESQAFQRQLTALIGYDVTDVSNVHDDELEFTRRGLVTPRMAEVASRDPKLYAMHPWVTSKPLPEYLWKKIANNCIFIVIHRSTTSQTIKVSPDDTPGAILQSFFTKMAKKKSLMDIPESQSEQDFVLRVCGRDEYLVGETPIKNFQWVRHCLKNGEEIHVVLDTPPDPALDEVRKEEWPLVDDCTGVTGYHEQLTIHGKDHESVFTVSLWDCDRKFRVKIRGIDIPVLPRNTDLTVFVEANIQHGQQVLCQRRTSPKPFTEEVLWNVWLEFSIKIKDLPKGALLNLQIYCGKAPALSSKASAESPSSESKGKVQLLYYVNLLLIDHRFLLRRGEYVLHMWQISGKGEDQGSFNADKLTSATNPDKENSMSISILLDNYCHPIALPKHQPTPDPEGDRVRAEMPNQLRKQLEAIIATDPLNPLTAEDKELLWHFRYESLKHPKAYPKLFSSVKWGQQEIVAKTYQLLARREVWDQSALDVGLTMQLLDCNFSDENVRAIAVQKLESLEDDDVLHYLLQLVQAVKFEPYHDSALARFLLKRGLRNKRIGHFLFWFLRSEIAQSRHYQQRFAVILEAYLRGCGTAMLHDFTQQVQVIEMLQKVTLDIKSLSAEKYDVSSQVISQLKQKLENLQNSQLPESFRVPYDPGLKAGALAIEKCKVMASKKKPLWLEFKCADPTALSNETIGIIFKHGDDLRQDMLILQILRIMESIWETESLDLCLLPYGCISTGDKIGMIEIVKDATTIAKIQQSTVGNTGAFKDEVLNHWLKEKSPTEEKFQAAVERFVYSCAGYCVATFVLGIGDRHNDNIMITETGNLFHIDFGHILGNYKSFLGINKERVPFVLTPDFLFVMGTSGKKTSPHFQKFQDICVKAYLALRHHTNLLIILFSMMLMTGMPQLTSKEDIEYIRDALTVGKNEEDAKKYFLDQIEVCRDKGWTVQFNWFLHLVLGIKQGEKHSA
Assay: PI3K-γ assay (ADP-Glo)
Assay type: biochemical
Details: read-out: PI3K inhibition IC50 -γ
Give measured IC50 for each item. Keep answers brief.
Give the number; nM is assumed, so skip it.

Prompt: Reported IC50, compound N#CCc1ccc(Nc2ncnc3ccc(-c4ccc5[nH]ccc5c4)cc23)cc1 : ____
Completion: 750

Prompt: Same thing, different compound: CC(=O)c1ccc(-c2ccc3ncnc(Nc4ccc(CC#N)cc4)c3c2)cc1
Completion: 150

Prompt: Same thing, different compound: N#CCc1ccc(Nc2ncnc3ccc(-c4cncc5ccccc45)cc23)cc1
Completion: 8440

Prompt: Same thing, different compound: N#CCc1ccc(Nc2ncnc3ccc(-c4ccncc4)cc23)cc1
Completion: 360

Prompt: Same thing, different compound: N#CCc1ccc(Nc2ncnc3ccc(-c4ccc5c(c4)OCCO5)cc23)cc1
Completion: 1370

====

Molecular target: UniProtKB P48736
Experiment: PI3K-γ assay (ADP-Glo)
Format: biochemical
Details: α versus γ isoform
Short version: Fold-selectivity for PI3K-α with respect to -γ at least 4 fold is Yes, less is No.

Prompt: Hi, just wondering whether N#CCc1ccc(Nc2ncnc3ccc(-c4cncc5ccccc45)cc23)cc1 shows Fold-selectivity for PI3K-α with respect to -γ of 4 fold or higher.
Completion: Yes

Prompt: Same thing, different compound: CC(=O)Nc1cccc(-c2ccc3ncnc(Nc4ccc(CC#N)cc4)c3c2)c1
Completion: Yes

Prompt: Same thing, different compound: N#CCc1ccc(Nc2ncnc3ccc(-c4ccncc4)cc23)cc1
Completion: No

Prompt: Same thing, different compound: N#CCc1ccc(Nc2ncnc3ccc(-c4ccc5c(c4)OCO5)cc23)cc1
Completion: No

Prompt: Same thing, different compound: N#CCc1ccc(Nc2ncnc3ccc(-c4ccc5[nH]ccc5c4)cc23)cc1
Completion: No

Prompt: Same thing, different compound: N#CCc1ccc(Nc2ncnc3ccc(-c4cccc(O)c4)cc23)cc1
Completion: Yes

Prompt: Same thing, different compound: CC(=O)c1ccc(-c2ccc3ncnc(Nc4ccc(CC#N)cc4)c3c2)cc1
Completion: No

Prompt: Same thing, different compound: N#CCc1ccc(Nc2ncnc3ccc(-c4cccc([N+](=O)[O-])c4)cc23)cc1
Completion: No

====

Give measured Fold-selectivity for PI3K-α with respect to -δ for each item. Keep answers brief.
Target: PI3K-δ (Homo sapiens, UniProt O00329)
Sequence (O00329 whole entry, species assumed): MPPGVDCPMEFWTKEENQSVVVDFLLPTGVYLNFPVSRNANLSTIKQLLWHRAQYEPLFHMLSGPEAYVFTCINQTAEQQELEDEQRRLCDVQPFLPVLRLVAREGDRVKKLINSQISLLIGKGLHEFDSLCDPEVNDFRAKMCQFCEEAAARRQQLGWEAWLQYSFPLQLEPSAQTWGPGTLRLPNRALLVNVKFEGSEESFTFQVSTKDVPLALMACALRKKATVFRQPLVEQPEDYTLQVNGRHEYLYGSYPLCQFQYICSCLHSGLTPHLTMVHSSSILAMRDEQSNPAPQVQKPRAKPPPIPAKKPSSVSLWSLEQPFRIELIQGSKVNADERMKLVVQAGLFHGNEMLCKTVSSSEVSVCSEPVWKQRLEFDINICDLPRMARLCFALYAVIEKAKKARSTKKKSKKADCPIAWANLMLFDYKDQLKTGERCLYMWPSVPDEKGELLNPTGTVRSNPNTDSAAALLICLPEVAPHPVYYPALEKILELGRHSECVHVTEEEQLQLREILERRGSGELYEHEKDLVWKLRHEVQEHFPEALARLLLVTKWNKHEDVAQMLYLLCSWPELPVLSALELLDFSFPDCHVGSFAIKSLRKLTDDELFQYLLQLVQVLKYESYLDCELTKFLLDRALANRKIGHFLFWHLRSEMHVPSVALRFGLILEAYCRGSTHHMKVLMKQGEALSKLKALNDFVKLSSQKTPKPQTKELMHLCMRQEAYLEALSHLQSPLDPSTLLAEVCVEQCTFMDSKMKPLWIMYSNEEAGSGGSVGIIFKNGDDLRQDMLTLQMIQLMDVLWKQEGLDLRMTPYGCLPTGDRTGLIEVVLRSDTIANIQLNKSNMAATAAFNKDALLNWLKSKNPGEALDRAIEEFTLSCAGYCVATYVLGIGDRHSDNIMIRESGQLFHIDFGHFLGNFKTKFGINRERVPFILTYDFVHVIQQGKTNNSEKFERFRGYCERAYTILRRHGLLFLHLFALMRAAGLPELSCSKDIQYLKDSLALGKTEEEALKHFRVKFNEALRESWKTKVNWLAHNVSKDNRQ
Sequence (P27986 whole entry partner, species assumed): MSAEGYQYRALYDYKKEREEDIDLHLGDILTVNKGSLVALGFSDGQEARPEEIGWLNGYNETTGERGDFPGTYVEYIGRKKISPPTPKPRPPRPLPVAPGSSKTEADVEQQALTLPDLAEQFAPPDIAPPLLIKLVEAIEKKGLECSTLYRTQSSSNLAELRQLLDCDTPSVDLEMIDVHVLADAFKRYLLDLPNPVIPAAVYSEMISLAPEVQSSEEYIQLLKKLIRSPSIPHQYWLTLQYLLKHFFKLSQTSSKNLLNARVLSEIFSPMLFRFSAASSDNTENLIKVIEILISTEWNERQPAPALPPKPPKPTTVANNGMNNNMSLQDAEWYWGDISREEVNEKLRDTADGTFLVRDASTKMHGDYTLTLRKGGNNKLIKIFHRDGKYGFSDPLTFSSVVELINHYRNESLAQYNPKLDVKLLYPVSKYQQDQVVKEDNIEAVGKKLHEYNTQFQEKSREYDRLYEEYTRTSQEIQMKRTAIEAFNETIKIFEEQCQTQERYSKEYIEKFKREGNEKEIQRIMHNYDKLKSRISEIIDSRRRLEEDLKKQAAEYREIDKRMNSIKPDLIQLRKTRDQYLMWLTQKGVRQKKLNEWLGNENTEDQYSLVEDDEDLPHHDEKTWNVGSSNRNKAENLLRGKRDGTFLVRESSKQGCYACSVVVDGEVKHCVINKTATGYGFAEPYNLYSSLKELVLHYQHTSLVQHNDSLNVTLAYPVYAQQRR
Test: PI3K-δ assay (ADP-Glo)
Type: biochemical
Details: α versus δ isoform

Prompt: Reported Fold-selectivity for PI3K-α with respect to -δ, compound N#CCc1ccc(Nc2ncnc3ccc(-c4cccc([N+](=O)[O-])c4)cc23)cc1 : ____
Completion: >22.2 fold

Prompt: Same thing, different compound: N#CCc1ccc(Nc2ncnc3ccc(-c4cccc(O)c4)cc23)cc1
Completion: 2.3 fold

Prompt: Same thing, different compound: N#CCc1ccc(Nc2ncnc3ccc(-c4cncc5ccccc45)cc23)cc1
Completion: 5.9 fold

Prompt: Same thing, different compound: C=Cc1ccc(-c2ccc3ncnc(Nc4ccc(CC#N)cc4)c3c2)cc1
Completion: 1 fold

Prompt: Same thing, different compound: CC(=O)c1ccc(-c2ccc3ncnc(Nc4ccc(CC#N)cc4)c3c2)cc1
Completion: >37 fold

Prompt: Same thing, different compound: N#CCc1ccc(Nc2ncnc3ccc(-c4ccc5c(c4)OCCO5)cc23)cc1
Completion: >29.2 fold

Prompt: Same thing, different compound: N#CCc1ccc(Nc2ncnc3ccc(-c4ccncc4)cc23)cc1
Completion: >14.2 fold

Prompt: Same thing, different compound: CC(=O)Nc1cccc(-c2ccc3ncnc(Nc4ccc(CC#N)cc4)c3c2)c1
Completion: >21 fold

Prompt: Same thing, different compound: N#CCc1ccc(Nc2ncnc3ccc(-c4ccc5[nH]ccc5c4)cc23)cc1
Completion: >49.7 fold

Prompt: Same thing, different compound: N#CCc1ccc(Nc2ncnc3ccc(-c4ccc5c(c4)OCO5)cc23)cc1
Completion: >31.1 fold

Data provenance: patent US10202374B2
